- System: HT29 colon
- PROTOCOL_SUMMARY: NCI-60 one-dose screen, 48 h
- COND: 10 µM unless noted
This is part of a sample that, as a whole, favours compounds with a hit. Of some 83,000 tested, about 20% had one in any assay. Calls of active or inactive are those of the source. The calls were made as follows: active = growth percent below 10; inactive = the rest.
Hi there, use one of these labels in your reply, thanks! Yes for active, No for inactive

These recorded examples may help you get a feel for the data.
MOLECULE	TEST_TARGET	CATEGORY
CC(C)C[C@@H](NC(=O)[C@@H](Cc1ccccc1)NC(=O)c1cnccn1)B1Oc2ccc(C[C@H](NC(=O)[C@H](Cc3ccc4c(c3)OB([C@@H](CC(C)C)NC(=O)[C@@H](Cc3ccccc3)NC(=O)c3cnccn3)O4)NC(=O)[C@@H](N)CC3CCC4OB([C@@H](CC(C)C)NC(=O)[C@@H](CC5CCCCC5)NC(=O)C5CNCCN5)OC4C3)C(=O)NCCCC[C@@H]3NC(=O)[C@@H](Cc4ccccc4)NC(=O)[C@H](CC(=O)O)NC(=O)CNC(=O)[C@H](CCCNC(=N)N)NC3=O)cc2O1 (stereo partly drawn)	HT29 colon	Yes
COc1cc(-c2ccc3c(c2)NC(=O)/C3=C\c2ccc[nH]2)ccc1O	HT29 colon	No

Query: recorded result category for CC[C@@H]1O[C@H](O[C@@H](c2cnc[nH]2)[C@H](NC(=O)c2nc([C@H](CC(N)=O)NC[C@@H](N)C(N)=O)nc(N)c2C)C(=O)N[C@H](C)[C@H](O)[C@H](C)C(=O)N[C@@H](C(=O)NCCc2nc(-c3nc(C(=O)NCCCCN=C(N)N)cs3)cs2)[C@@H](C)O)[C@H](O[C@@H]2O[C@H](CO)[C@H](O)[C@H](OC(N)=O)[C@@H]2O)[C@H](C)[C@@H]1C in this test
No

* * *

- System: MDA-MB-231 breast
- PROTOCOL_SUMMARY: NCI-60 one-dose screen, 48 h (100 = growth as untreated, 0 = no growth, -100 = all killed)
- COND: 10 µM unless noted
About 83,000 compounds went through this panel and 20% of them were active in at least one assay; those are over-represented in the sample as a whole.
Give y when the value for growth is at least 90%. Give n when it is less.

// known answers, use as guide
MOLECULE	CATEGORY
COc1ccc(/C=C/C(=O)c2ccc(O)c(CN3CCN(c4cc5c(cc4F)c(=O)c(C(=O)O)cn5C4CC4)CC3)c2)cc1	n
C=CC(COC(c1ccccc1)(c1ccccc1)c1ccccc1)N(CC)CC (stereo not given)	n

Now for a further molecule.
Determine whether measured growth meets or exceeds 90% for CC(C)(O)c1cn(CCCCN2C(=O)C(=O)c3ccccc32)nn1
y

* * *

# growth listing for each entry below
- Test system: DU-145 prostate
- PROTOCOL_SUMMARY: NCI-60 one-dose screen, 48 h (100 = growth as untreated, 0 = no growth, -100 = all killed)
- COND: 10 µM unless noted
About 83,000 compounds went through this panel and 20% of them were active in at least one assay; those are over-represented in the sample as a whole. Activity calls are given as the source filed them. The calls were made as follows: active = growth percent below 10; inactive = the rest.

QUERY_SMILES	RESULT
COc1ccc(/C=C\c2cc(OC)c(OC)c(OC)c2)cc1OCC(=O)Nc1ccc2nc(C)sc2c1	64.6% (inactive)
Nc1ccc(-c2cc3c(Nc4ccc(Oc5cccc(C(F)(F)F)c5)c(Cl)c4)ncnc3s2)cc1	72.5% (inactive)
O=C(CN1CCCCC1)Nc1ccc2oc(=O)ccc2c1	113% (inactive)

Given CCN1CCN(c2nc(NCCNc3ccnc4cc(Cl)ccc34)c3ccccc3n2)CC1 , state its recorded growth.
33.9% (inactive)

Suppose we examine the compound CCCCn1cnc2c(Sc3c([N+](=O)[O-])ncn3C)nc(N)nc21 ; what growth value has been reported?
99.6% (inactive)
